Give kon for every item shown.
Target: T1, human KLRB1 protein extracellular domain (ECD) (human, UniProt Q12918 67-225)
T1 construct: range 67-225; The ELISA and SPR text says only 'human KLRB1 ECD'; also called human KLRB1 ECD; CD161
T1 sequence (looked up): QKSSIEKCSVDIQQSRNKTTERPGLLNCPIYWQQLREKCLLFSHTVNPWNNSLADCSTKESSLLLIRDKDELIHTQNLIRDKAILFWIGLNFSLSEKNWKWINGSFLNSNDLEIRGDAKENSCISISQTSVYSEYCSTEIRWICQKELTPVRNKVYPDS
Assay: SPR, human KLRB1 ECD; format not stated
Answers are plain numbers, in M⁻¹ s⁻¹.

Take a look at these entries with their results.
10A3D6C109Chum3.1 (antibody, V domains shown, Humanized variant of 10A3D6 made by CDR grafting) VH: QVQLVQSGAEVKKPGASVKVSCKASGYSFTGYTMNWVRQAHGQNLEWIGLINPNTGGTYYNQKFKDRVTLTVDTSISTAYMELSRLRSDDTAVYYCARLGDNYRGYFDCWGQGTTVTVSS VL: DIQLTQSPSFLSASVGDRVTITCKASQDVGTAVVWYQQKPGKAPKLLIYWASIRHTGVPSRFSGSGSGTEFTLTISSLQPEDFATYYCQQYSTYLYTFGGGTKLEIK
457000
10A3D6C109Chum1.1 (antibody, V domains shown, Humanized variant of 10A3D6 made by CDR grafting) VH: QVQLVQSGAEVKKPGASVKVSCKASGYSFTGYTMNWVRQAPGQGLEWMGLINPNTGGTYYNQKFKDRVTMTRDTSISTAYMELSRLRSDDTAVYYCARLGDNYRGYFDCWGQGTTVTVSS VL: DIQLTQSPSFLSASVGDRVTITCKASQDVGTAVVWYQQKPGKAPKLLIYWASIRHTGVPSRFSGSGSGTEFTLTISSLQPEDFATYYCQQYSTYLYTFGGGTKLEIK
314000
10A3D6C109Chum4.4 (antibody, V domains shown, Humanized variant of 10A3D6 made by CDR grafting) VH: QVQLVQSGAEVKKPGASVKVSCKASGYSFTGYTMNWVRQAHGQNLEWIGLINPNTGGTYYNQKFKDRATLTVDTSISTAYMELSRLRSDDTAVYYCARLGDNYRGYFDCWGQGTTVTVSS VL: DIQLTQSPSFLSASVGDRVTITCKASQDVGTAVVWYQQTPGKAPKLLIDWASIRHTGVPDRFSGSGSGTEFTLTISSLQPEDFADYFCQQYSTYLYTFGGGTKLEIK
963000
10A3D6C109Chum5.4 (antibody, V domains shown, Humanized variant of 10A3D6 made by CDR grafting) VH: QVQLVQSGAEVKKPGASVKVSCKASGYSFTGYTMNWVRQAPGQNLEWMGLINPNTGGTYYNQKFKDRVTLTVDTSISTAYMELSRLRSDDTVVYYCARLGDNYRGYFDCWGQGTLVTVSS VL: DIQLTQSPSFLSASVGDRVTITCKASQDVGTAVVWYQQTPGKAPKLLIDWASIRHTGVPDRFSGSGSGTEFTLTISSLQPEDFADYFCQQYSTYLYTFGGGTKLEIK
930000
10A3D6C109Chum4.1 (antibody, V domains shown, Humanized variant of 10A3D6 made by CDR grafting) VH: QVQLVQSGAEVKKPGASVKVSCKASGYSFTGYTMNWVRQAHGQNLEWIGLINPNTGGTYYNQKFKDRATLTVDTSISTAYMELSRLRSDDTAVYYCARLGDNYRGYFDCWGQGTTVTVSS VL: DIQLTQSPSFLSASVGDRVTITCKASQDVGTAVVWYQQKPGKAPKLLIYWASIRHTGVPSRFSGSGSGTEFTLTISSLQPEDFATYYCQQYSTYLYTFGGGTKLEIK
117000

Take each entry in turn and give its kon.
1. 10A3D6C109Chum3.3 (antibody, V domains shown, Humanized variant of 10A3D6 made by CDR grafting) VH: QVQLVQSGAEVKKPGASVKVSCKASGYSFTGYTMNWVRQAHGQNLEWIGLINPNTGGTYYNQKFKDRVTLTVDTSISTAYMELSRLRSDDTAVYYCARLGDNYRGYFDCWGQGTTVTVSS VL: DIQLTQSPSFLSASVGDRVTITCKASQDVGTAVVWYQQTPGKAPKLLIDWASIRHTGVPSRFSGSGSGTEFTLTISSLQPEDFADYFCQQYSTYLYTFGGGTKLEIK
2. 10A3D6C109Chum3.4 (antibody, V domains shown, Humanized variant of 10A3D6 made by CDR grafting) VH: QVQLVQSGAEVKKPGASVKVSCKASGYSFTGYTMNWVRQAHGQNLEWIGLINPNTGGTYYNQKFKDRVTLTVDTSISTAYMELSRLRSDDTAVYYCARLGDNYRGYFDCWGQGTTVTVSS VL: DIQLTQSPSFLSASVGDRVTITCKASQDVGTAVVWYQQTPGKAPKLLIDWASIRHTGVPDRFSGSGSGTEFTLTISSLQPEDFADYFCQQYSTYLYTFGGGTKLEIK
3. 10A3D6C109Chum1.2 (antibody, V domains shown, Humanized variant of 10A3D6 made by CDR grafting) VH: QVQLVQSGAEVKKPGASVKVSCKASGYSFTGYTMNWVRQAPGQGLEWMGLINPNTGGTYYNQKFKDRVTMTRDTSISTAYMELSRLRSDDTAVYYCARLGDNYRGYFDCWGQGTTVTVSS VL: DIQLTQSPSFLSASVGDRVTITCKASQDVGTAVVWYQQKPGKAPKLLIDWASIRHTGVPSRFSGSGSGTEFTLTISSLQPEDFADYFCQQYSTYLYTFGGGTKLEIK
4. 10A3D6hum1.5 (antibody, V domains shown, Humanized antibody) VH: QVQLVQSGAEVKKPGASVKVSCKASGYSFTGYTMNWVRQAPGQGLEWMGLINPNTGGTYYNQKFKDRVTMTRDTSISTAYMELSRLRSDDTAVYYCARLGDNYRGYFDSWGQGTTVTVSS VL: EIVMTQSPATLSVSPGERATLSCKASQDVGTAVVWYQQKPGQAPRLLIDWASIRHTGIPARFSGSGSGTEFTLTISSLQSEDFAVYYCQQYSTYLYTFGGGTKVEIK

1: 905000; 2: 1.01e+06; 3: 1e+06; 4: 1.6e+06

Taken from patent US20250270328A1.
